These data points were gathered from ChEMBL document CHEMBL1641377.

Target of assay: Gastric inhibitory polypeptide receptor (Homo sapiens) (UniProt P48546)
Assay procedure: Antagonist activity at human GIPR expressed in CHO cells assessed as inhibition of glucagon-induced cAMP accumulation at 10 uM
Format: functional, cell-based
Recorded endpoint: inhibition (%)
One number for each entry, in %.

Look over these answered cases.
O=C(O)CCNC(=O)c1ccc(Cn2nc(-c3ccc(OC(F)(F)F)cc3)cc2-c2cc(Cl)cc(Cl)c2)cc1 :: 21
CS(=O)(=O)c1ccc(-c2cc(-c3ccc(OC(F)(F)F)cc3)nn2Cc2ccc(C(=O)Nc3nn[nH]n3)cc2)cc1 :: 36
O=C(Nc1nn[nH]n1)c1cccc(Cn2nc(-c3ccc(OC(F)(F)F)cc3)cc2-c2ccc(OC(F)(F)F)cc2)c1 :: 2

Let us move to another entry and its inhibition.
# `CN(CCC(=O)O)C(=O)c1ccc(Cn2nc(-c3ccc(OC(F)(F)F)cc3)cc2-c2ccc(OC(F)(F)F)cc2)cc1` with Gastric inhibitory polypeptide receptor (Homo sapiens) (UniProt P48546): inhibition is 9

----------
Assay procedure: Half life in rat at 1 mg/kg, iv and 2 mg/kg, po
Assay type: ADME, organism-based
Condition notes: in vivo
Recorded endpoint: half-life

So for `O=C(O)CCNC(=O)c1ccc(Cn2nc(-c3cc(Cl)cc(Cl)c3)cc2-c2ccc(OC(F)(F)F)cc2)cc1` , the logged half-life turned out to be 6.5 h

----------
Target of assay: Gastric inhibitory polypeptide receptor (Homo sapiens)
Assay procedure: Antagonist activity at human GIPR expressed in CHO cells assessed as inhibition of glucagon-induced cAMP accumulation
Kindly state pIC50 for each of the entries shown.
Answers are plain numbers, as −log10 of the molar value.

O=C(Nc1nn[nH]n1)c1ccc(Cn2nc(C3CCCCC3)cc2-c2ccc(OC(F)(F)F)cc2)cc1 :: 6.04
O=C(O)CCNC(=O)c1ccc(Cn2nc(-c3cc(Cl)cc(Cl)c3)cc2-c2ccc(OC(F)(F)F)cc2)cc1 :: 5.12
O=C(Nc1nnn[nH]1)c1ccc(Cn2nc(-c3ccc(OC(F)(F)F)cc3)cc2-c2cc(Cl)cc(Cl)c2)cc1 :: 5.52
CC(C)(C)[C@H]1CC[C@H](N(Cc2ccc(C(=O)Nc3nn[nH]n3)cc2)C(=O)Nc2ccc(OC(F)(F)F)cc2)CC1 :: 7.35
O=C(Nc1nn[nH]n1)c1ccc(Cn2nc(-c3ccc(OC(F)(F)F)cc3)cc2C2CCCCC2)cc1 :: 5.68

Observed pIC50, Gastric inhibitory polypeptide receptor (Homo sapiens), `CC(C)(C)[C@H]1CC[C@H](N(Cc2ccc(C(=O)NCCC(=O)O)cc2)C(=O)Nc2ccc(OC(F)(F)F)cc2)CC1` : 5.89

----------
Assay procedure: Half life in mouse at 1 mg/kg, iv and 2 mg/kg, po
Assay type: ADME, organism-based
Condition notes: in vivo
Recorded endpoint: half-life
Your answer should be a number followed by the unit of measure.

Per the records, this molecule ( `O=C(O)CCNC(=O)c1ccc(Cn2nc(-c3cc(Cl)cc(Cl)c3)cc2-c2ccc(OC(F)(F)F)cc2)cc1` ) has half-life equal to 2.3 h

----------
Assay procedure: Half life in rhesus monkey at 0.5 mg/kg, iv and 2 mg/kg, po
Format: ADME, organism-based, Macaca mulatta
Condition notes: in vivo
Recorded endpoint: half-life (h)
Give bare numbers, in h.

For this molecule ( `O=C(O)CCNC(=O)c1ccc(Cn2nc(-c3cc(Cl)cc(Cl)c3)cc2-c2ccc(OC(F)(F)F)cc2)cc1` ), measured half-life is 10

----------
Assay procedure: Plasma concentration in rhesus monkey at 1 mg/kg, po after 4 hrs
Assay type: ADME, organism-based, Macaca mulatta
Design: dose 1 mg/kg, route oral
Recorded endpoint: concentration at 4 h (nM)
One number for each entry, in nM.

Per the records, this compound ( `O=C(O)CCNC(=O)c1ccc(Cn2nc(-c3cc(Cl)cc(Cl)c3)cc2-c2ccc(OC(F)(F)F)cc2)cc1` ) has concentration at 4 h equal to 600

----------
Target of assay: Glucagon receptor (Homo sapiens, UniProt P47871)
Sequence (P47871 whole entry): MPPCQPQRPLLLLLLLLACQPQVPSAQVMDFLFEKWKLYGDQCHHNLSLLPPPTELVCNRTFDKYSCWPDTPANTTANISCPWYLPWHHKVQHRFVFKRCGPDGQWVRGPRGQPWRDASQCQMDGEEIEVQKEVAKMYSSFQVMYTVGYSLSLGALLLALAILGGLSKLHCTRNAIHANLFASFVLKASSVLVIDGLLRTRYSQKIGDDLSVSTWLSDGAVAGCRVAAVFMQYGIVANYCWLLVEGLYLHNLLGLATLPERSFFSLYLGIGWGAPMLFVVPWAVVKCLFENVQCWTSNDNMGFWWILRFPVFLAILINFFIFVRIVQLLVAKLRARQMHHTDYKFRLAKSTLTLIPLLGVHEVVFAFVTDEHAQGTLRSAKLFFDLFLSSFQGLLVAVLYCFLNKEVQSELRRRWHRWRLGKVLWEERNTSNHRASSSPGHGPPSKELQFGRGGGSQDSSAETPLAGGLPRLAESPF
Assay procedure: Displacement of [125I]glucagon from human GCGR expressed in CHO cells
Assay type: cell-based
Provide the recorded log10 of IC50 for the entries that follow.
Kindly note that the scale is log10 and the underlying IC50 is in nM.

Observe how each entry below is paired with its result.
O=C(O)CCNC(=O)c1ccc(Cn2nc(-c3cc(Cl)cc(Cl)c3)cc2-c2ccc(OC(F)(F)F)cc2)cc1 :: 1.92
O=C(O)CNC(=O)c1cccc(Cn2nc(-c3ccc(OC(F)(F)F)cc3)cc2-c2ccc(OC(F)(F)F)cc2)c1 :: 3.46
O=C(O)CNC(=O)c1ccc(Cn2nc(-c3ccc(OC(F)(F)F)cc3)cc2-c2ccc(OC(F)(F)F)cc2)cc1 :: 3.48
CS(=O)(=O)c1ccc(-c2cc(-c3ccc(OC(F)(F)F)cc3)n(Cc3ccc(C(=O)NCCC(=O)O)cc3)n2)cc1 :: 3.43
O=C(O)CCNC(=O)c1ccc(Cc2cn(-c3ccc(OC(F)(F)F)cc3)nc2C2CCCCC2)cc1 :: 3.08

// each listed molecule needs a value for log10 of IC50
1. CC(C)(C)[C@H]1CC[C@H](N(Cc2ccc(C(=O)Nc3nn[nH]n3)cc2)C(=O)Nc2ccc(OC(F)(F)F)cc2)CC1
2. O=C(O)CCNC(=O)c1ccc(Cc2cc(-c3ccc(OC(F)(F)F)cc3)n(C3CCCCC3)n2)cc1

1: 0.51; 2: 3.23

Hi! Can you tell me log10 of IC50 for each of these molecules?
1. O=C(Nc1nn[nH]n1)c1ccc(Cc2cc(-c3ccc(OC(F)(F)F)cc3)n(C3CCCCC3)n2)cc1
2. CC(c1ccc(Cl)cc1)c1cc(-c2ccc(OC(F)(F)F)cc2)nn1Cc1ccc(C(=O)NCCC(=O)O)cc1 (stereo not drawn)
3. O=C(NC[C@@H](O)C(=O)O)c1ccc(Cn2nc(-c3cc(Cl)cc(Cl)c3)cc2-c2ccc(OC(F)(F)F)cc2)cc1
4. O=C(Nc1nnn[nH]1)c1ccc(Cn2nc(-c3cc(Cl)cc(Cl)c3)cc2-c2ccc(OC(F)(F)F)cc2)cc1
5. O=C(O)CCCNC(=O)c1cccc(Cn2nc(-c3ccc(OC(F)(F)F)cc3)cc2-c2ccc(OC(F)(F)F)cc2)c1
6. CC(C)(C)[C@H]1CC[C@H](N(Cc2ccc(C(=O)NCCC(=O)O)cc2)C(=O)Nc2ccc(OC(F)(F)F)cc2)CC1
7. CC(c1ccc(Cl)cc1)c1cc(-c2ccc(OC(F)(F)F)cc2)nn1Cc1ccc(C(=O)Nc2nn[nH]n2)cc1 (stereo not drawn)
8. CN(CCC(=O)O)C(=O)c1ccc(Cn2nc(-c3ccc(OC(F)(F)F)cc3)cc2-c2ccc(OC(F)(F)F)cc2)cc1

3.46
2.86
1.45
1.59
3.04
1.32
2.72
3.86

# batch: return log10 of IC50 for each of the 4 molecules below
1. CS(=O)(=O)c1ccc(-c2cc(-c3ccc(OC(F)(F)F)cc3)nn2Cc2ccc(C(=O)Nc3nnn[nH]3)cc2)cc1
2. O=C(Nc1nn[nH]n1)c1ccc(Cn2nc(C3CCCCC3)cc2-c2ccc(OC(F)(F)F)cc2)cc1
3. O=C(Nc1nnn[nH]1)c1ccc(Cc2cn(-c3ccc(OC(F)(F)F)cc3)nc2C2CCCCC2)cc1
4. O=C(O)CCNC(=O)c1ccc(Cn2nc(-c3ccc(OC(F)(F)F)cc3)cc2-c2ccc(OC(F)(F)F)cc2)cc1

2.34
2.91
3.72
2.69

For each of the molecules below, state log10 of IC50.
1. CS(=O)(=O)c1ccc(-c2cc(-c3ccc(OC(F)(F)F)cc3)nn2Cc2ccc(C(=O)NCCC(=O)O)cc2)cc1
2. O=C(O)CCCNC(=O)c1ccc(Cn2nc(-c3ccc(OC(F)(F)F)cc3)cc2-c2ccc(OC(F)(F)F)cc2)cc1
3. O=C(Nc1nnn[nH]1)c1ccc(Cn2nc(-c3ccc(OC(F)(F)F)cc3)cc2-c2cc(Cl)cc(Cl)c2)cc1

[3.08, 3.04, 1.56]

Short answer on Glucagon receptor (Homo sapiens, UniProt P47871) for CC(c1ccc(C(=O)Nc2nnn[nH]2)cc1)n1nc(-c2ccc(OC(F)(F)F)cc2)cc1-c1ccc(OC(F)(F)F)cc1 (stereo not drawn) , log10 of IC50: 2.11

----------
Target of assay: Gastric inhibitory polypeptide receptor (Homo sapiens)
Sequence (whole entry): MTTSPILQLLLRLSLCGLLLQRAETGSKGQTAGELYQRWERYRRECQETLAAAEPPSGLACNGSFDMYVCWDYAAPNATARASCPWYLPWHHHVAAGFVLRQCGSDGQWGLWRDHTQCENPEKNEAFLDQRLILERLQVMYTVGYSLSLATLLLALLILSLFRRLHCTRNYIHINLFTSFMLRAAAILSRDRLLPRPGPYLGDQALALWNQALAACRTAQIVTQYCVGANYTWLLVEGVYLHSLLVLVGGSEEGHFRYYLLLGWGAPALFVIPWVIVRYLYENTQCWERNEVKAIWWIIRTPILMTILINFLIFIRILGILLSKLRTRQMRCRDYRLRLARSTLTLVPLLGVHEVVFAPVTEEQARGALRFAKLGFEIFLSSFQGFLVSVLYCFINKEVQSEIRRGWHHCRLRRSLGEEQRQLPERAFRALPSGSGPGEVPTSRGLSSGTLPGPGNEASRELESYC
Assay procedure: Antagonist activity at human GIPR expressed in CHO cells assessed as inhibition of glucagon-induced cAMP accumulation at 10 uM
Assay type: functional, cell-based
What inhibition was measured for each of the following?
One number for each entry, in %.

Worked set:
CC(c1ccc(Cl)cc1)c1cc(-c2ccc(OC(F)(F)F)cc2)n(Cc2ccc(C(=O)Nc3nn[nH]n3)cc2)n1 (stereo not drawn) :: 20
CC(C)(C)[C@H]1CC[C@H](c2cc(-c3ccc(OC(F)(F)F)cc3)nn2Cc2ccc(C(=O)NCCC(=O)O)cc2)CC1 :: 6
O=C(Nc1nn[nH]n1)c1ccc(Cc2cc(-c3ccc(OC(F)(F)F)cc3)nn2C2CCCCC2)cc1 :: 42
CS(=O)(=O)c1ccc(-c2cc(-c3ccc(OC(F)(F)F)cc3)n(Cc3ccc(C(=O)Nc4nn[nH]n4)cc3)n2)cc1 :: 45
O=C(Nc1nn[nH]n1)c1ccc(Cn2nc(-c3ccc(OC(F)(F)F)cc3)cc2-c2ccc(OC(F)(F)F)cc2)cc1 :: 46

Would you mind listing inhibition for each of the following compounds?
1. CC(c1ccc(Cl)cc1)c1cc(-c2ccc(OC(F)(F)F)cc2)nn1Cc1ccc(C(=O)Nc2nn[nH]n2)cc1 (stereo not drawn)
2. CS(=O)(=O)c1ccc(-c2cc(-c3ccc(OC(F)(F)F)cc3)nn2Cc2ccc(C(=O)NCCC(=O)O)cc2)cc1
3. CC(c1ccc(Cl)cc1)c1cc(-c2ccc(OC(F)(F)F)cc2)n(Cc2ccc(C(=O)NCCC(=O)O)cc2)n1 (stereo not drawn)
4. CC(c1ccc(Cl)cc1)c1cc(-c2ccc(OC(F)(F)F)cc2)nn1Cc1ccc(C(=O)NCCC(=O)O)cc1 (stereo not drawn)
5. O=C(O)CCCNC(=O)c1ccc(Cn2nc(-c3ccc(OC(F)(F)F)cc3)cc2-c2ccc(OC(F)(F)F)cc2)cc1
6. CS(=O)(=O)c1ccc(-c2cc(-c3ccc(OC(F)(F)F)cc3)n(Cc3ccc(C(=O)NCCC(=O)O)cc3)n2)cc1

21
31
0
22
15
43

Need inhibition for each of these compounds.
1. O=C(O)CCCNC(=O)c1cccc(Cn2nc(-c3ccc(OC(F)(F)F)cc3)cc2-c2ccc(OC(F)(F)F)cc2)c1
2. O=C(O)CNC(=O)c1cccc(Cn2nc(-c3ccc(OC(F)(F)F)cc3)cc2-c2ccc(OC(F)(F)F)cc2)c1

1: 49; 2: 34
